biological target: PI3K γ (Homo sapiens, UniProt P48736); construct: purchased Sigma; assay: In vitro IC50, PI3K γ (p110γ inhibition assay); type: biochemical; conditions: in vitro kinase assay
Sequence (P48736 whole entry): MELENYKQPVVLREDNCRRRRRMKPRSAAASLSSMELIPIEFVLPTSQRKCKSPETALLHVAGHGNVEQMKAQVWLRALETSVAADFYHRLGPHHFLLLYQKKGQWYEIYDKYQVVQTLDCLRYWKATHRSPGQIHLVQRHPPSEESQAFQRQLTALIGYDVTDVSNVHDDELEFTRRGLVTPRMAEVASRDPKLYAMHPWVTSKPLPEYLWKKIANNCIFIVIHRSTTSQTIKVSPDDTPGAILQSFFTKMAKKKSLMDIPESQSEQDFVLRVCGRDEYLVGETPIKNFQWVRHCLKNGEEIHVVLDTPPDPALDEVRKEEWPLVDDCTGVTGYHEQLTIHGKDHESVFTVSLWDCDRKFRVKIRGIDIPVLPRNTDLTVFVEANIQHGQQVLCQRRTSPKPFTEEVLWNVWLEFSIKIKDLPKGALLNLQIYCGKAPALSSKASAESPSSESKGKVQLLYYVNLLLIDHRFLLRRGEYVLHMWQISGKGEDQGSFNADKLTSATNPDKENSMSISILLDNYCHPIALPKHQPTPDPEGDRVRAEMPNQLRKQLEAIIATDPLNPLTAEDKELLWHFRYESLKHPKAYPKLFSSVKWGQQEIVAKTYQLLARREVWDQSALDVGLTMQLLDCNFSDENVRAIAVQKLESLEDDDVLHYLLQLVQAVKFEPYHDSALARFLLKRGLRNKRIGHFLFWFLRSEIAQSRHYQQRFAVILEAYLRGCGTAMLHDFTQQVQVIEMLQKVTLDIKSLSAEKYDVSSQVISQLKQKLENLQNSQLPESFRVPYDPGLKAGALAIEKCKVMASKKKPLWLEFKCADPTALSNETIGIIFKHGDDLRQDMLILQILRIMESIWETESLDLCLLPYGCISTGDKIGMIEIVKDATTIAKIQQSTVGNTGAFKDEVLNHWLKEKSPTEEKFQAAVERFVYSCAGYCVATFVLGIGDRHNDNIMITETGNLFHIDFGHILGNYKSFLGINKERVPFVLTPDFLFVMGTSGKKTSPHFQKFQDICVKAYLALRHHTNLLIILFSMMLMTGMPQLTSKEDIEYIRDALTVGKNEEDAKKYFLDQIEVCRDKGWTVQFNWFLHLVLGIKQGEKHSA
Recorded IC50 values for a group of compounds are listed next.

[
  {
    "compound": "Cc1cccc2cc(C(C)Nc3ncnc4[nH]cnc34)nc(CCN3CCN(C)CC3)c12 (centres unmarked) [Compound 20]",
    "observed_value": "> 10000 nM"
  },
  {
    "compound": "CN(C)c1nc(Cn2nc(-c3ccc4oc(N)nc4c3)c3c(N)ncnc32)cc2ccccc12 [Compound 2]",
    "observed_value": "< 100 nM"
  },
  {
    "compound": "C[C@H](Nc1ncnc2[nH]cnc12)c1cc2cccc(Cl)c2c(OCCN2CCCC2)n1 [Compound 72]",
    "observed_value": "< 1000 nM"
  },
  {
    "compound": "Cc1cccc2cc(C(C)Nc3ncnc4[nH]cnc34)nc(OC3CCN(C(C)C)CC3)c12 (centres unmarked) [Compound 21]",
    "observed_value": "> 10000 nM"
  }
]

stdin: Would you kindly share the measured IC50 for CC(=O)N1CCC(Oc2nc(C(C)Nc3ncnc4[nH]cnc34)cc3ccccc23)CC1 (centres unmarked) [Compound 52] ?
stdout: > 10000 nM

stdin: Would you kindly share the measured IC50 for C[C@H](Nc1ncnc2[nH]cnc12)c1cc2cccc(Cl)c2c(CCN2CCC2)n1 [Compound 88] ?
stdout: < 10000 nM

stdin: Would you kindly share the measured IC50 for Cc1cccc2cc(C(C)Nc3ncnc4[nH]cnc34)nc(N3CCOCC3)c12 (centres unmarked) [Compound 44] ?
stdout: < 10000 nM

stdin: Would you kindly share the measured IC50 for C[C@H](Nc1ncnc2[nH]cnc12)c1cc2cccc(Cl)c2c(N2CCCC2)n1 [Compound 63] ?
stdout: < 10000 nM
